- experimental.target: MMP-1 (Homo sapiens)
- Sequence (P03956 100-469): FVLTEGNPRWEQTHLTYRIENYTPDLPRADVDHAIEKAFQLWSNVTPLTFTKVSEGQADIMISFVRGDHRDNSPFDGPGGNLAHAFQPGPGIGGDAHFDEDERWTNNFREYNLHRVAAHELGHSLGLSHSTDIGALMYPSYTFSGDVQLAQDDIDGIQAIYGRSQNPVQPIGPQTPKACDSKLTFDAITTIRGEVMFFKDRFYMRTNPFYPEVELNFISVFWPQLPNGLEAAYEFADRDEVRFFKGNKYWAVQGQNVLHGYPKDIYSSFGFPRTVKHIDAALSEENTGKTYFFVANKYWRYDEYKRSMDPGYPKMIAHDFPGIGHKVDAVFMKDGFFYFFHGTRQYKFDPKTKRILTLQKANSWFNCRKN
- experiment.notes: MMP-1 inhibition (thiopeptide or fluorescent peptide substrate assay)
- Assay type: biochemical
- test.parameters: read-out: MMP-1 IC50
pIC50: −log10 of the molar value.
pIC50 values, listed per item
measure.name: pIC50

>  <molecule.smiles>
COc1ccc(S(=O)(=O)N(Cc2ccccc2)c2c(OCCCC(=O)NO)cccc2C(=O)NO)cc1

>  <quantitative.readout>
6.61

$$$$
>  <molecule.smiles>
COc1ccc(S(=O)(=O)N(Cc2ccccc2)c2ccc(C)cc2C(=O)NO)cc1

>  <quantitative.readout>
6.26

$$$$
>  <molecule.smiles>
C#Cc1ccc(S(=O)(=O)N(Cc2cccnc2)c2c(C)cccc2C(=O)NO)cc1

>  <quantitative.readout>
6.28

$$$$
>  <molecule.smiles>
CCCCCCCCN(C)C(=O)CCc1cc(C)c(N(C)S(=O)(=O)c2ccc(OC)cc2)c(C(=O)NO)c1

>  <quantitative.readout>
6.38

$$$$
>  <molecule.smiles>
COC(=O)c1cccc(C(=O)NO)c1N(Cc1cccnc1)S(=O)(=O)c1ccc(OC)cc1

>  <quantitative.readout>
6.68

$$$$
>  <molecule.smiles>
COc1ccc(S(=O)(=O)N(Cc2ccc(CN(C)C)cc2)c2c(C)cccc2C(=O)NO)cc1

>  <quantitative.readout>
6.67

$$$$
>  <molecule.smiles>
COc1ccc(S(=O)(=O)N(C)c2c(C)cc(C)cc2C(=O)NO)cc1

>  <quantitative.readout>
6.67

$$$$
>  <molecule.smiles>
COc1ccc(S(=O)(=O)N(Cc2cccnc2)c2c(C)cc(-c3ccccc3C(F)(F)F)cc2C(=O)NO)cc1

>  <quantitative.readout>
6.19

$$$$

----------
inhibition at 1 µM values, listed per item
- experimental.target: TACE (Homo sapiens)
- Sequence (P78536 215-824): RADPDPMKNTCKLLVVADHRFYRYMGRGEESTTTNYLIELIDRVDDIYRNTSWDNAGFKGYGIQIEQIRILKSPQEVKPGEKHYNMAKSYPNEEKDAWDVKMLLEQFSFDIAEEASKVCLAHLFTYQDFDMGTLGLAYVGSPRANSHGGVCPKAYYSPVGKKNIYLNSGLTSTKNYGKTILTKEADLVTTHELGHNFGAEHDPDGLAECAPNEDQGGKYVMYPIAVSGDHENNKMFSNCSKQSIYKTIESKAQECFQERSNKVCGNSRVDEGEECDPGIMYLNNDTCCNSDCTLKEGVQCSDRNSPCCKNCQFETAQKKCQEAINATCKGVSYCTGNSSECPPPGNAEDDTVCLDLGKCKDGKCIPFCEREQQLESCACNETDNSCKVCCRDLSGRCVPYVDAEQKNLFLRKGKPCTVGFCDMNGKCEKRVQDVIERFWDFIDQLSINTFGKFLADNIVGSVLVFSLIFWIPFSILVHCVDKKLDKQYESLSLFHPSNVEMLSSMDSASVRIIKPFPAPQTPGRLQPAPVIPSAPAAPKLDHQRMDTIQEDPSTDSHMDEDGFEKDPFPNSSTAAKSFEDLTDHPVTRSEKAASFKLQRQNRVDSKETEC
- experiment.notes: TACE inhibition (fluorescent peptidyl substrate)
- Assay type: biochemical
- test.parameters: at 1µM concentration
Counter-ions that a name gives are not always drawn.

>  <compound>
CCOC(=O)CCCN(c1c(C)cccc1C(=O)NO)S(=O)(=O)c1ccc(OC)cc1

>  <inhibition at 1 µM>
45%

$$$$
>  <compound>
COc1ccc(-c2ccc(-c3cc(C)c(N(Cc4cccnc4)S(=O)(=O)c4ccc(OC)cc4)c(C(=O)NO)c3)cc2)cc1 [Example 399, hydrochloride salt]

>  <inhibition at 1 µM>
25%

$$$$
>  <compound>
COc1ccc(S(=O)(=O)N(CC(=O)OCc2ccccc2)c2c(C)cccc2C(=O)NO)cc1

>  <inhibition at 1 µM>
56%

$$$$
>  <compound>
COc1ccc(S(=O)(=O)N(Cc2ccccc2)c2c(C(=O)NO)cccc2N(C)C)cc1

>  <inhibition at 1 µM>
39%

$$$$
>  <compound>
COc1ccc(S(=O)(=O)N(Cc2cccnc2)c2c(C(=O)O)cccc2C(=O)NO)cc1

>  <inhibition at 1 µM>
29%

$$$$
>  <compound>
CCOC(=O)CCCCN(c1c(C)cccc1C(=O)NO)S(=O)(=O)c1ccc(OC)cc1

>  <inhibition at 1 µM>
55%

$$$$
>  <compound>
Cc1cccc(C(=O)NO)c1N(Cc1cccnc1)S(=O)(=O)c1ccc(-c2ccc(C(F)(F)F)cc2)cc1

>  <inhibition at 1 µM>
2%

$$$$

----------
IC50 values, listed per item
- experimental.target: MMP-9 (Homo sapiens, UniProt P14780)
- Sequence (P14780 94-707): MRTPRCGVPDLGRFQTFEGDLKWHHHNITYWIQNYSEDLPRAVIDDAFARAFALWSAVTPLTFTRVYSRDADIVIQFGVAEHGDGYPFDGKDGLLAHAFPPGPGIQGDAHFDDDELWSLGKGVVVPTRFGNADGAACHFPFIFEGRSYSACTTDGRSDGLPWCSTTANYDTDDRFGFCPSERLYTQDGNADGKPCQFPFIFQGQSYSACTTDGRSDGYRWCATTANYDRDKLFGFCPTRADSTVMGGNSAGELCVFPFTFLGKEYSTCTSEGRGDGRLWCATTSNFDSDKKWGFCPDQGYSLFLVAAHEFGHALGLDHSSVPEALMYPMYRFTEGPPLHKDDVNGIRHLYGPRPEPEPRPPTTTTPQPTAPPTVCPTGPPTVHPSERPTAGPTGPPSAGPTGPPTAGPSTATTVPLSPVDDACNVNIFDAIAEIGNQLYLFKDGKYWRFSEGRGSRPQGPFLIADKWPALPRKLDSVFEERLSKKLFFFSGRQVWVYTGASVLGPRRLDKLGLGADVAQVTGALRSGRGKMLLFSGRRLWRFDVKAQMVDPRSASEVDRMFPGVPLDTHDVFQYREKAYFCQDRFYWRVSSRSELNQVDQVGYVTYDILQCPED
- experiment.notes: MMP-9 inhibition (thiopeptide or fluorescent peptide substrate assay)
- Assay type: biochemical
- test.parameters: read-out: MMP-9 IC50

>  <molecule.smiles>
COc1ccc(S(=O)(=O)N(Cc2ccccc2)c2c(OCc3ccccc3)cccc2C(=O)NO)cc1

>  <IC50 [nM]>
28

$$$$
>  <molecule.smiles>
COc1ccc(S(=O)(=O)N2Cc3ccccc3COc3cccc(C(=O)NO)c32)cc1

>  <IC50 [nM]>
203

$$$$
>  <molecule.smiles>
COc1ccc(S(=O)(=O)N(Cc2cccnc2)c2c(CN3CCCC3)cccc2C(=O)NO)cc1

>  <IC50 [nM]>
46

$$$$
>  <molecule.smiles>
COc1ccc(S(=O)(=O)N(C)c2c(Cn3ccnc3)cccc2C(=O)NO)cc1

>  <IC50 [nM]>
10

$$$$

----------
- experimental.target: MMP-13 (Homo sapiens, UniProt P45452)
- experiment.notes: MMP-13 inhibition (thiopeptide or fluorescent peptide substrate assay)
- Format: biochemical
- test.parameters: read-out: MMP-13 IC50
measure.name: IC50 (nM)

>  <compound>
COc1ccc(S(=O)(=O)N(C)c2c(CCC(=O)NO)cccc2C(=O)NO)cc1 [Example 350]

>  <measure.name>
IC50

>  <quantitative.readout>
21

$$$$
>  <compound>
COc1ccc(S(=O)(=O)N(Cc2cccnc2)c2c(C)cc(-c3sccc3C=NO)cc2C(=O)NO)cc1 [Example 258]

>  <measure.name>
IC50

>  <quantitative.readout>
7

$$$$
>  <compound>
COC(=O)c1cccc(C(=O)NO)c1N(C)S(=O)(=O)c1ccc(OC)cc1 [Example 373]

>  <measure.name>
IC50

>  <quantitative.readout>
59

$$$$
>  <compound>
CCCCCCCCCCC#Cc1cc(C)c(N(C)S(=O)(=O)c2ccc(OC)cc2)c(C(=O)NO)c1 [Example 358]

>  <measure.name>
IC50

>  <quantitative.readout>
107

$$$$

----------
- experimental.target: UniProt P45452
- experiment.notes: MMP-13 inhibition (thiopeptide or fluorescent peptide substrate assay)
- Assay type: biochemical

>  <molecule.smiles>
COc1ccc(S(=O)(=O)N(C)c2c(C)cc(C=CC(=O)N(C)C)cc2C(=O)O)cc1

>  <IC50 / µM>
0.019

$$$$
>  <molecule.smiles>
COc1ccc(S(=O)(=O)N(Cc2ccccc2)c2c(C)cccc2C(=O)NO)cc1

>  <IC50 / µM>
0.05

$$$$
>  <molecule.smiles>
COc1ccc(S(=O)(=O)N(Cc2cccnc2)c2c(C(=O)NO)cc(C)cc2-c2ccco2)cc1

>  <IC50 / µM>
0.0014

$$$$
>  <molecule.smiles>
COc1ccc(S(=O)(=O)N(Cc2ccccc2)c2c(C(=O)NO)cccc2N(C)C)cc1

>  <IC50 / µM>
0.531

$$$$

----------
- experimental.target: MMP-13 (Homo sapiens, UniProt P45452)
- experiment.notes: MMP-13 inhibition (thiopeptide or fluorescent peptide substrate assay)
- Format: biochemical
- test.parameters: read-out: MMP-13 IC50
measure.name: log10 of IC50 (log10 of the value in nM)

>  <molecule.smiles>
COc1ccc(S(=O)(=O)N(Cc2c(F)c(F)c(OC)c(F)c2F)c2c(C)cc(C)cc2C(=O)NO)cc1

>  <log10 of IC50>
1.15

$$$$
>  <molecule.smiles>
C=CCN(CC=C)C(=O)C=Cc1cc(C)c(N(Cc2cccnc2)S(=O)(=O)c2ccc(OC)cc2)c(C(=O)NO)c1

>  <log10 of IC50>
0.26

$$$$
>  <molecule.smiles>
COc1ccc(S(=O)(=O)N(Cc2cccnc2)c2c(C)ccc(C)c2C(=O)NO)cc1

>  <log10 of IC50>
1.15

$$$$
>  <molecule.smiles>
COc1ccc(S(=O)(=O)N(Cc2ccccc2)c2c(OCCCC(=O)NO)cccc2C(=O)NO)cc1

>  <log10 of IC50>
1.56

$$$$
>  <molecule.smiles>
COc1ccc(S(=O)(=O)N(Cc2cccnc2)c2c(C)cc(-c3cccnc3)cc2C(=O)NO)cc1

>  <log10 of IC50>
0.99

$$$$
>  <molecule.smiles>
COc1ccc(S(=O)(=O)N(CC(=O)N2CCN(C)CC2)c2c(C)cccc2C(=O)NO)cc1

>  <log10 of IC50>
2.49

$$$$
>  <molecule.smiles>
COc1ccc(S(=O)(=O)N(Cc2cccnc2)c2c(CO)cccc2C(=O)NO)cc1

>  <log10 of IC50>
1.48

$$$$

----------
- experimental.target: UniProtKB P03956
- experiment.notes: MMP-1 inhibition (thiopeptide or fluorescent peptide substrate assay)
- Assay type: biochemical
- test.parameters: read-out: MMP-1 % inhibition; footnote: 1µM
measure.name: inhibition at 1 µM (%)

>  <molecule.smiles>
COc1ccc(S(=O)(=O)N(Cc2ccccc2)c2c(C(=O)NO)cccc2N(C)C)cc1

>  <experimental.target>
UniProtKB P03956

>  <measure.name>
inhibition at 1 µM

>  <endpoint.unit>
%

>  <quantitative.readout>
19

$$$$
>  <molecule.smiles>
COc1ccc(S(=O)(=O)N(C)c2c(C)cc(C#Cc3ccc(-c4ccccc4)cc3)cc2C(=O)NO)cc1

>  <experimental.target>
UniProtKB P03956

>  <measure.name>
inhibition at 1 µM

>  <endpoint.unit>
%

>  <quantitative.readout>
23

$$$$
>  <molecule.smiles>
CCOC(=O)CCCN(c1c(C)cccc1C(=O)NO)S(=O)(=O)c1ccc(OC)cc1

>  <experimental.target>
UniProtKB P03956

>  <measure.name>
inhibition at 1 µM

>  <endpoint.unit>
%

>  <quantitative.readout>
34

$$$$
>  <molecule.smiles>
CCOC(=O)CCCCN(c1c(C)cccc1C(=O)NO)S(=O)(=O)c1ccc(OC)cc1

>  <experimental.target>
UniProtKB P03956

>  <measure.name>
inhibition at 1 µM

>  <endpoint.unit>
%

>  <quantitative.readout>
48

$$$$
>  <molecule.smiles>
Cc1cc(Br)cc(C(=O)NO)c1N(Cc1ccccc1)S(=O)(=O)c1ccc(OCc2ccccc2)cc1

>  <experimental.target>
UniProtKB P03956

>  <measure.name>
inhibition at 1 µM

>  <endpoint.unit>
%

>  <quantitative.readout>
10

$$$$
>  <molecule.smiles>
COc1ccc(S(=O)(=O)N(CC(=O)NCc2ccccn2)c2c(C)cccc2C(=O)NO)cc1

>  <experimental.target>
UniProtKB P03956

>  <measure.name>
inhibition at 1 µM

>  <endpoint.unit>
%

>  <quantitative.readout>
21

$$$$
>  <molecule.smiles>
CCCCCCCCN(c1c(CN2CCN(C)CC2)cccc1C(=O)NO)S(=O)(=O)c1ccc(OC)cc1

>  <experimental.target>
UniProtKB P03956

>  <measure.name>
inhibition at 1 µM

>  <endpoint.unit>
%

>  <quantitative.readout>
15

$$$$
>  <molecule.smiles>
COc1ccc(S(=O)(=O)N(CC(=O)OCc2ccccc2)c2c(C)cccc2C(=O)NO)cc1

>  <experimental.target>
UniProtKB P03956

>  <measure.name>
inhibition at 1 µM

>  <endpoint.unit>
%

>  <quantitative.readout>
25

$$$$
